Tested on: Hepatitis B virus
Protocol details: Antiviral activity against HBV infected in human HepG2(2.2.15) cells assessed as inhibition of HBeAg level after 9 days by ELISA
Type: functional, organism-based
Run conditions: HepG2 2.2.15, 216 h
Reported IC50 values follow for various molecules
State the result as a value with its unit after it.

Structure smiles string	Observed result
COc1ccc(C(=O)c2ccc(=O)n(-c3ccc(C)cc3)c2)c(O)c1	2 µM
COc1ccc(/C(=N/Cc2ccccc2)c2ccc(=O)n(Cc3ccccc3)c2)c(O)c1	4.4 µM
COc1ccc(C(=O)c2ccc(=O)n(C3CCCCC3)c2)c(O)c1	0.73 µM

We now examine a further molecule.
In: Entry `CCCC/N=C(\c1ccc(=O)n(CCCC)c1)c1ccc(OC)cc1O` has what IC50?
Out: 56 µM

----------
Protocol details: Selectivity index, ratio of CC50 for human HepG2(2.2.15) cells to IC50 for HBV infected in human HepG2(2.2.15) cells assessed as inhibition of HBeAg
Type: functional
I would appreciate it if you labelled entries Satisfied when Ratio CC50/IC50 is 20 or higher, otherwise Not satisfied.

Use the examples below as a reference point.
Structure smiles string	Group label
COc1ccc(C(=O)c2ccc(=O)n(-c3cc(C)ccc3C)c2)c(O)c1	Not satisfied
COc1ccc(C(=O)c2ccc(=O)n(-c3cccc(C)c3)c2)c(O)c1	Satisfied
COc1ccc(C(=O)c2ccc(=O)n(-c3ccc(C(C)=O)cc3)c2)c(O)c1	Not satisfied
COc1ccc(C(=O)c2ccc(=O)n(-c3ccc(Cl)cc3)c2)c(O)c1	Satisfied
COc1ccc(/C(=N/C2CC2)c2ccc(=O)n(C3CC3)c2)c(O)c1	Not satisfied
COc1ccc(/C(=N/Cc2ccc(F)c(F)c2)c2ccc(=O)n(Cc3ccc(F)c(F)c3)c2)c(O)c1	Not satisfied
COc1ccc(/C(=N/Cc2ccc(F)cc2)c2ccc(=O)n(Cc3ccc(F)cc3)c2)c(O)c1	Not satisfied
COc1ccc(C(=O)c2ccc(=O)n(-c3ccccc3C)c2)c(O)c1	Satisfied
Nc1ncnc2c1ncn2CCOCP(=O)(O)O	Not satisfied
COc1ccc(C(=O)c2ccc(=O)n(/C=C/Nc3cccc4ccccc34)c2)c(O)c1	Not satisfied

In: # check: Ratio CC50/IC50 of `COc1ccc(C(=O)c2ccc(=O)n(-c3ccc(C)cc3)c2)c(O)c1` is greater than or equal to 20
Out: Satisfied

In: Follow-up item: `COc1ccc(/C(=N/C2CCCCC2)c2ccc(=O)n(C3CCCCC3)c2)c(O)c1`
Out: Not satisfied

In: Follow-up item: `CCCC/N=C(\c1ccc(=O)n(CCCC)c1)c1ccc(OC)cc1O`
Out: Not satisfied

In: Follow-up item: `COc1ccc(C(=O)c2ccc(=O)n(-c3ccc([N+](=O)[O-])cc3)c2)c(O)c1`
Out: Not satisfied

In: Follow-up item: `COc1ccc(/C(=N/Cc2ccccc2)c2ccc(=O)n(Cc3ccccc3)c2)c(O)c1`
Out: Satisfied

In: Follow-up item: `C=CCn1cc(C(=O)c2ccc(OC)cc2O)ccc1=O`
Out: Not satisfied

In: Follow-up item: `C=CC/N=C(\c1ccc(=O)n(CC=C)c1)c1ccc(OC)cc1O`
Out: Not satisfied

In: Follow-up item: `COc1ccc(C/N=C(\c2ccc(=O)n(Cc3ccc(OC)cc3)c2)c2ccc(OC)cc2O)cc1`
Out: Not satisfied

Data credit: ChEMBL document CHEMBL1156796
